# subject_of_test: T1, HLA-A*01:01 (human)
# T1 construct: Peptide-receptive MHC class I monomer made by UV cleavage of a UV-sensitive ligand
# experimental_details: UV ligand exchange ELISA; exchange yield grade
For each of the binders below, state its peptide exchange yield.

## Task Which peptide exchange yield is listed for ITDIHIKY ?
## Result > 75%

## Task Try this binder next: YSDKEFAGSY
## Result > 75%

## Task Try this binder next: TFDLTVVSY
## Result 20 to 50%

## Task Try this binder next: VTEGVAQTSFY
## Result > 75%

## Task Try this binder next: FMDSESFYY
## Result 10 to 20%

## Task Try this binder next: YSHPQYSSY
## Result 20 to 50%

## Task Try this binder next: YVDAGTPMY
## Result 50 to 75%

## Task Try this binder next: ALDQNKMHY
## Result 50 to 75%
